Test system: 242566-281-R-J2-PDC complex spheroid viability;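 also: spheroids exposed to compound for 7 days before readout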
Assay: Anticancer human tumor 242566-281-R-J2-PDC patient-derived pancreatic carcinoma cell line growth inhibition [RAS]
Conditions: curve of first compound; second compound 0.000949 µM
MEASURED_ENDPOINT: IC50 (µM)
Give bare numbers, in µM.

Consider the reported IC50 for these molecules:
| MOLECULE | IC50 [µM] |
| --- | --- |
| CC(C)n1nc(-c2ccc3oc(N)nc3c2)c2c(N)ncnc21 + CCn1c(-c2cccnc2C(C)OC)c2c3cc(ccc31)N1CCOC(CC(NC(=O)C(C(C)C)N(C)C(=O)C3(F)CCN(C(=O)C#CC(C)(C)N(C)C)CC3)C(=O)N3CCCC(N3)C(=O)OCC(C)(C)C2)C1 | 0.0435 |
| CCc1c2c(nc3ccc(O)cc13)-c1cc3c(c(=O)n1C2)COC(=O)[C@]3(O)CC + CCn1c(-c2cc(N3CCN(C)CC3)cnc2C(C)OC)c2c3cc(ccc31)-c1csc(n1)CC(NC(=O)C1CC1C)C(=O)N1CCCC(N1)C(=O)OCC(C)(C)C2 | 0.0145 |
| CC(Nc1ccc2c(c1)OCCn1cc(N3C(=O)OCC3C(F)F)nc1-2)C(N)=O (stereo not given) + CCn1c(-c2cccnc2C(C)OC)c2c3cc(ccc31)N1CCOC(CC(NC(=O)C(C(C)C)N(C)C(=O)C3(F)CCN(C(=O)C#CC(C)(C)N(C)C)CC3)C(=O)N3CCCC(N3)C(=O)OCC(C)(C)C2)C1 | 0.918 |

Give measured IC50 for every item shown.
1. CCC(CC)c1cc(NC2CCC(N)C2)n2nccc2n1 (stereo not given) + CCn1c(-c2cccnc2C(C)OC)c2c3cc(ccc31)N1CCOC(CC(NC(=O)C(C(C)C)N(C)C(=O)C3(F)CCN(C(=O)C#CC(C)(C)N(C)C)CC3)C(=O)N3CCCC(N3)C(=O)OCC(C)(C)C2)C1
2. C=CC(=O)Nc1cc(Nc2nccc(-c3cn(C)c4ccccc34)n2)c(OC)cc1N(C)CCN(C)C + CCn1c(-c2cc(N3CCN(C)CC3)cnc2C(C)OC)c2c3cc(ccc31)-c1csc(n1)CC(NC(=O)C1CC1C)C(=O)N1CCCC(N1)C(=O)OCC(C)(C)C2
3. CC1(O)CCCC1n1c(=O)c(C(F)F)cc2cnc(NC3CCN(S(C)(=O)=O)CC3)nc21 (stereo not given) + CCn1c(-c2cc(N3CCN(C)CC3)cnc2C(C)OC)c2c3cc(ccc31)-c1csc(n1)CC(NC(=O)C1CC1C)C(=O)N1CCCC(N1)C(=O)OCC(C)(C)C2
4. CC(C)NCC(C(=O)N1CCN(c2ncnc3c2C(C)CC3O)CC1)c1ccc(Cl)cc1 (stereo not given) + CCn1c(-c2cc(N3CCN(C)CC3)cnc2C(C)OC)c2c3cc(ccc31)-c1csc(n1)CC(NC(=O)C1CC1C)C(=O)N1CCCC(N1)C(=O)OCC(C)(C)C2
5. Nc1ccn(C2OC(CO)C(O)C2(F)F)c(=O)n1 (stereo not given) + CCn1c(-c2cc(N3CCN(C)CC3)cnc2C(C)OC)c2c3cc(ccc31)-c1csc(n1)CC(NC(=O)C1CC1C)C(=O)N1CCCC(N1)C(=O)OCC(C)(C)C2
6. CC(Nc1ccc2c(c1)OCCn1cc(N3C(=O)OCC3C(F)F)nc1-2)C(N)=O (stereo not given) + CCn1c(-c2cc(N3CCN(C)CC3)cnc2C(C)OC)c2c3cc(ccc31)-c1csc(n1)CC(NC(=O)C1CC1C)C(=O)N1CCCC(N1)C(=O)OCC(C)(C)C2

Response:
2.76
0.323
6.35
7.98
0.0401
0.364
